Each entry below carries its recorded z-score.
Procedure Details: MM1S myeloma cell viability, profiling panel, resazurin fluorescence, basal, 24 h, PK04 Diversity Set (AID 1174);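 further: MM1S multiple myeloma cell line; test concentration not given here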
Test Parameters: higher = more signal, called active from +8 up or from −8 down
Output spec: single numeric token, no unit.

Inquiry: May I ask what z-score has been recorded for COCCNC(=O)OCC1CCCC2(CC(OC(=O)NCCc3ccc(F)cc3)CC(CCC(=O)N[C@@H](C)C(=O)OC)O2)O1 (stereo partly specified) ?
Reply text: 0.899

Inquiry: May I ask what z-score has been recorded for CN(C)c1ccc(C(O)C2C=CC3C(=O)N(c4ccccc4)C(=O)C3N2Nc2ccccc2F)cc1 (stereo unspecified) ?
Reply text: -0.234

Inquiry: May I ask what z-score has been recorded for CC(C)N1CC=CC23O[C@@H]4C=CCCOC(=O)C4[C@H]2C(=O)N(CCCCCCO)[C@@H]3C1=O (stereo partly specified) ?
Reply text: 0.98

Others:
Inquiry: May I ask what z-score has been recorded for CCCCCN1CC=CC23O[C@@H]4C=CCOC(=O)[C@@H]4[C@H]2C(=O)N(CCCCCCO)[C@@H]3C1=O (stereo partly specified) ?
Reply text: 0.806

* * *

Subject Of Test: Left-right determination factor 2 (Homo sapiens) (UniProt O00292)
Sequence (O00292 whole entry, looked up): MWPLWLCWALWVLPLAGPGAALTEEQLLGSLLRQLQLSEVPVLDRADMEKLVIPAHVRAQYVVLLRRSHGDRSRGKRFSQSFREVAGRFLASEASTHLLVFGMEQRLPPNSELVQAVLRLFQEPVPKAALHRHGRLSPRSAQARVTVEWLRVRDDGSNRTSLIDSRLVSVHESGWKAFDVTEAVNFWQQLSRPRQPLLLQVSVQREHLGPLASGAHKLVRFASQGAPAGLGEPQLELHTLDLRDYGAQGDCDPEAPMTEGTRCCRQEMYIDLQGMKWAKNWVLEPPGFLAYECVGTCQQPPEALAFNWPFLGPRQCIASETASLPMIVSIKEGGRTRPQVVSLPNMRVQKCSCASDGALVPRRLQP
Procedure Details: LEFTY2 binders on small-molecule microarrays, primary screen, biochemical, small-molecule microarray, 635 nm fluorescence scan (AID 1110)
Test Parameters: LEFTY2 binding, higher = more signal
Each entry below carries its recorded composite z-score.
Output spec: single numeric token, no unit.

Record excerpt, results attached:
Inquiry: Lookup: composite z-score / Left-right determination factor 2 (Homo sapiens) (UniProt O00292) / COc1cccc([C@@H]2Oc3ccc(Br)cc3C(=O)[C@H]2O)c1
Reply text: 0.171

Inquiry: Lookup: composite z-score / Left-right determination factor 2 (Homo sapiens) (UniProt O00292) / C=CC[C@@H]1C=C[C@H](ON=C[C@@H](OC)[C@H](C)C=CCC(=O)OC)[C@@H](CO)O1
Reply text: 0.283

Inquiry: Lookup: composite z-score / Left-right determination factor 2 (Homo sapiens) (UniProt O00292) / CC1CC/C=C\[C@H]2OC34C=CCN(Cn5nnc6ccccc65)C(=O)[C@H]3N(CCO)C(=O)[C@@H]4C2C(=O)O1 (stereo partly drawn)
Reply text: -0.28

Inquiry: Lookup: composite z-score / Left-right determination factor 2 (Homo sapiens) (UniProt O00292) / C=C(COC)/C(=C/C[C@H](OC(=O)c1ccncc1)c1ccc(CO)o1)c1cc(C(=O)OC)ccc1OC
Reply text: 0.208

Inquiry: Lookup: composite z-score / Left-right determination factor 2 (Homo sapiens) (UniProt O00292) / COCCOC(=O)N1C(=O)[C@@]2(c3cc(C#CCNC(N)=O)ccc31)[C@H](c1ccccc1OCCO)N1[C@H](c3ccccc3)[C@H](c3ccccc3)OC(=O)[C@H]1[C@@H]2C(=O)N1CCN(c2ncccn2)CC1
Reply text: 0.377

Inquiry: Lookup: composite z-score / Left-right determination factor 2 (Homo sapiens) (UniProt O00292) / COC(=O)CC=C[C@H](C)[C@H](CO)NS(=O)(=O)c1ccc(C)cc1
Reply text: 0.703

Others:
Inquiry: Lookup: composite z-score / Left-right determination factor 2 (Homo sapiens) (UniProt O00292) / CCCCCCc1nc(CCCc2cc3c(c(CCCCCC)n2)[Si](C(C)C)(C(C)C)O[C@H]3c2ccccc2)cc2c1[Si](C(C)C)(C(C)C)O[C@H]2c1ccccc1
Reply text: 0.109

Inquiry: Lookup: composite z-score / Left-right determination factor 2 (Homo sapiens) (UniProt O00292) / CO[C@H]1COC(=O)[C@H](C)COC(=O)CC=C[C@@H](C)[C@H](OC)COC(=O)CC=C[C@@H]1C
Reply text: 1.15

Inquiry: Lookup: composite z-score / Left-right determination factor 2 (Homo sapiens) (UniProt O00292) / CN1C(=O)[C@@]2(CCC(=O)OC(C)(C)C)N=C(c3ccc(OCCCO)cc3)O[C@H]2c2ccccc21
Reply text: -0.057

Inquiry: Lookup: composite z-score / Left-right determination factor 2 (Homo sapiens) (UniProt O00292) / C=C(/C(=C/C[C@@H](OC(=O)c1ccncc1)c1ccc(OCCO)cc1)c1cnc2ccccc2c1)C(C)C
Reply text: 0.466

Inquiry: Lookup: composite z-score / Left-right determination factor 2 (Homo sapiens) (UniProt O00292) / C[C@@H]1C=CCC(=O)OC[C@H](C)C(=O)N[C@@H](C)C(=O)OC1
Reply text: 0.409

Inquiry: Lookup: composite z-score / Left-right determination factor 2 (Homo sapiens) (UniProt O00292) / O=C1[C@H]2[C@H]3[C@H](O)[C@H](O)CC(=NO[C@@H]4O[C@H](CO)[C@@H](O)[C@H](O)[C@H]4O)[C@@H]3CC[C@H]2C(=O)N1Cc1ccccc1
Reply text: 0.792

Inquiry: Lookup: composite z-score / Left-right determination factor 2 (Homo sapiens) (UniProt O00292) / CCN1C(=O)[C@H]2[C@H]3[C@H](O)[C@H](O)CC(=NOC(C)CN4CCCCc5nc(C)c(C)cc54)[C@@H]3CC[C@H]2C1=O (stereo partly drawn)
Reply text: 0.905

Inquiry: Lookup: composite z-score / Left-right determination factor 2 (Homo sapiens) (UniProt O00292) / COCCOC(=O)N1C(=O)[C@@]2(c3ccccc31)[C@H](C(N)=O)[C@H]1C(=O)O[C@H](c3ccccc3)[C@H](c3ccccc3)N1[C@@H]2c1ccccc1OCCO
Reply text: 0.565

Inquiry: Lookup: composite z-score / Left-right determination factor 2 (Homo sapiens) (UniProt O00292) / CC(C)NC(=O)[C@@]1(C)c2ccccc2C(=O)N(Cc2cc(F)cc(C(F)(F)F)c2)[C@H]1c1ccc(CO)cc1
Reply text: -0.0164

Inquiry: Lookup: composite z-score / Left-right determination factor 2 (Homo sapiens) (UniProt O00292) / CCOC(=O)[C@H](Cc1ccccc1)NC(=O)CCC1CC(OC(=O)NCc2ccc3c(c2)OCO3)CC2(CCCC(COC(=O)NCC(c3ccccc3)c3ccccc3)O2)O1 (stereo partly drawn)
Reply text: 0.45

Inquiry: Lookup: composite z-score / Left-right determination factor 2 (Homo sapiens) (UniProt O00292) / COC(=O)[C@H](C)NC(=O)CCC1CC(OC(=O)NCc2cccc3ccccc23)CC2(CCCC(COC(=O)NCCc3ccc(Cl)cc3)O2)O1 (stereo partly drawn)
Reply text: 0.451

Inquiry: Lookup: composite z-score / Left-right determination factor 2 (Homo sapiens) (UniProt O00292) / CCc1cccc(NC(=O)O[C@H]2[C@H](OC(=O)Nc3ccc4c(c3)OCO4)[C@@H](OC(=O)Nc3ccc4c(c3)OCO4)[C@@H](OC)O[C@@H]2CO)c1
Reply text: 0.645

These measurements were taken from PubChem BioAssay.
